Ref: patent US20230146395A1

# Tested On: Full length human recombinant PIKFYVE (Homo sapiens, UniProt Q9Y2I7)
# Construct: Full length human recombinant PIKFYVE
# Sequence (Q9Y2I7 whole entry): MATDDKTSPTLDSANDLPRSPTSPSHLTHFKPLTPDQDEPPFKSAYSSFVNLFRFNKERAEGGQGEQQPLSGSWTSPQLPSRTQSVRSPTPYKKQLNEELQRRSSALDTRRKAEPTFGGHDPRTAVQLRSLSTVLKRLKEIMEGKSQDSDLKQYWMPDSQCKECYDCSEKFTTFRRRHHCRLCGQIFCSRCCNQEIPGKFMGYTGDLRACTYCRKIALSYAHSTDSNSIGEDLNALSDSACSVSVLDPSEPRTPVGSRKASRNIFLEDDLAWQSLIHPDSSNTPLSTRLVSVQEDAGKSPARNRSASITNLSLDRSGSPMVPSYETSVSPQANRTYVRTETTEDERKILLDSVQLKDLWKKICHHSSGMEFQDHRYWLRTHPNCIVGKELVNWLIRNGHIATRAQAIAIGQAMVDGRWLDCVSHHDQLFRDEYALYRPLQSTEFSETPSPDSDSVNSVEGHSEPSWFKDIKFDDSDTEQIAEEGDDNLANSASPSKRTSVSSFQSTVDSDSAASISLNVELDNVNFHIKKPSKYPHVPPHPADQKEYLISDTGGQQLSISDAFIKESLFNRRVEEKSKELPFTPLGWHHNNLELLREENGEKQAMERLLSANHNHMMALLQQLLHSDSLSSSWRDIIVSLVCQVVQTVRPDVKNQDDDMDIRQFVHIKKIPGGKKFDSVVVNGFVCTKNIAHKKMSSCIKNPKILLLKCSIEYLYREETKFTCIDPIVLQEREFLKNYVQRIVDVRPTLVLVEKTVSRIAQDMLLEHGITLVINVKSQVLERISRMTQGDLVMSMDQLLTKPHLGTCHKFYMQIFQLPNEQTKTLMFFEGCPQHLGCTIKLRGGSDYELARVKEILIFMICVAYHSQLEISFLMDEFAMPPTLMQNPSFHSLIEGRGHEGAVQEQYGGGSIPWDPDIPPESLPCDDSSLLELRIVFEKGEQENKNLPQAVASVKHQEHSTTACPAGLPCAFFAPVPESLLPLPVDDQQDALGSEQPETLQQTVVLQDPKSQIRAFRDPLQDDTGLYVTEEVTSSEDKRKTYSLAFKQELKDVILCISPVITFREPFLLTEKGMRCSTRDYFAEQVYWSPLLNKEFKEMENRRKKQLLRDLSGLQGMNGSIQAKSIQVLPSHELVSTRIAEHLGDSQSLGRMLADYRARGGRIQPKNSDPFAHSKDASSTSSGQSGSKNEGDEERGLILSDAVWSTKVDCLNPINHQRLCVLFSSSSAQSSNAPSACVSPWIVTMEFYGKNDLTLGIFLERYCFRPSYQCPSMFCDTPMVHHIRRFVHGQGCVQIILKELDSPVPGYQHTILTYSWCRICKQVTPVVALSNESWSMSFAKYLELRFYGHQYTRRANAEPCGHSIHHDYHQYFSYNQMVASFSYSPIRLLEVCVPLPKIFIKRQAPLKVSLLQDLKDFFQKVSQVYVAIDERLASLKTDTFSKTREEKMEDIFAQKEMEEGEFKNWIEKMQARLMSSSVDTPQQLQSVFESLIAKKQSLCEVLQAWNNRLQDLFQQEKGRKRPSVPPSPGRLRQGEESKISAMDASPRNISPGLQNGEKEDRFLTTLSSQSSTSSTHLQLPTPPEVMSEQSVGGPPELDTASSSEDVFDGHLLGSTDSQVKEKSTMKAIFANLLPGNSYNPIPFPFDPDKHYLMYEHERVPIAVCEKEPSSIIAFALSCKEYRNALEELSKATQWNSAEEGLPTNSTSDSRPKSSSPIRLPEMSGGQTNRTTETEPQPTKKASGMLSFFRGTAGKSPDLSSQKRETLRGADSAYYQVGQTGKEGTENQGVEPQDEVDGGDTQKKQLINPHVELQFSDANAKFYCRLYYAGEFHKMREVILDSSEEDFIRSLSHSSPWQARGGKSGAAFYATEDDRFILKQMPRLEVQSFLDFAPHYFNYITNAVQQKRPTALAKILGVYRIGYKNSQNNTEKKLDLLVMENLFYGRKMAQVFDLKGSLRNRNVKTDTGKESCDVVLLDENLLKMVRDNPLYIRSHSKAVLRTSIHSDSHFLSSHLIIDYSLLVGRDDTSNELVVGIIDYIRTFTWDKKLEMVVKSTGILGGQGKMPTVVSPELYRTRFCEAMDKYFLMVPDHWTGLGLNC
# Experiment Description: Inhibition of PIKfyve (microfluidic electrophoresis kinase assay, PI3P/PS substrate)
# Experimental Conditions: 12 concentrations
Each record here notes measured IC50.
Property Label: IC50 (µM)

{"columns": ["Compound", "Tested On", "Observed Result"],
 "data": [
  ["Brc1cccc(-c2ccn(-c3nc(N4CCOCC4)c4oc(-c5ccccn5)cc4n3)n2)c1 [Compound 186]", "Full length human recombinant PIKFYVE (Homo sapiens, UniProt Q9Y2I7)", 0.006],
  ["Cc1cccc(-c2cnn(-c3nc(N4CCOCC4)c4oc(-c5ccncn5)cc4n3)c2)c1 [Compound 143]", "Full length human recombinant PIKFYVE (Homo sapiens, UniProt Q9Y2I7)", 0.025],
  ["Cc1cc(-c2cc3nc(-n4ccc(-c5ccccc5)n4)nc(N4CCOCC4)c3o2)[nH]n1 [Compound 162]", "Full length human recombinant PIKFYVE (Homo sapiens, UniProt Q9Y2I7)", 0.0178],
  ["CONC(=O)c1cc2nc(Nc3cc(-c4ccccc4)[nH]n3)nc(N3CCOCC3)c2o1 [Compound 58]", "Full length human recombinant PIKFYVE (Homo sapiens, UniProt Q9Y2I7)", 0.095],
  ["COc1cccc(-c2ccn(-c3nc(N4CCOCC4)c4oc(-c5ccccn5)cc4n3)n2)c1 [Compound 199]", "Full length human recombinant PIKFYVE (Homo sapiens, UniProt Q9Y2I7)", 0.0368],
  ["[2H]C1([2H])OC([2H])([2H])C([2H])([2H])N(c2nc(-n3cc(-c4cccc(C)c4)cn3)nc3cc(C(=O)NCC)oc23)C1([2H])[2H] [Compound 131]", "Full length human recombinant PIKFYVE (Homo sapiens, UniProt Q9Y2I7)", 0.018],
  ["Cc1cccc(-c2cnn(-c3nc(N4CCOCC4)c4oc(-c5cc(C)n[nH]5)cc4n3)c2)c1 [Compound 144]", "Full length human recombinant PIKFYVE (Homo sapiens, UniProt Q9Y2I7)", 0.0003],
  ["c1ccc(-c2ccn(-c3nc(N4CCOCC4)c4oc(-c5cn[nH]c5)cc4n3)n2)cc1 [Compound 209]", "Full length human recombinant PIKFYVE (Homo sapiens, UniProt Q9Y2I7)", 0.0098]
]}
